Reported PI (relative stability), 25% TIDE 2X with DTPA is given for each of the following molecules.
# testDetails: Stability assay in 25% TIDE 2X detergent with DTPA (residual Abz-AGLA-Nba protease activity)
# Type: physicochemical
# conditionNotes: 60 min at 32°C; variant residual AGLA activity divided by wild-type residual activity
attributeMeasured: PI (relative stability), 25% TIDE 2X with DTPA

INSERT INTO measurements (molecule, measured) VALUES
  ('S065I: single-substitution thermolysin variant (SEQ ID NO:3 numbering) (protein, listed as Geobacillus caldoproteolyticus) ITGTSTVGVGRGVLGDQKNINTTYSTYYYLQDNTRGNGIFTYDAKYRTTLPGSLWADADNQFFAIYDAPAVDAHYYAGVTYDYYKNVHNRLSYDGNNAAIRSSVHYSQGYNNAFWNGSQMVYGDGDGQTFIPLSGGIDVVAHELTHAVTDYTAGLIYQNESGAINEAISDIFGTLVEFYANKNPDWEIGEDVYTPGISGDSLRSMSDPAKYGDPDHYSKRYTGTQDNGGVHINSGIINKAAYLISQGGTHYGVSVVGIGRDKLGKIFYRALTQYLTPTSNFSQLRAAAVQSATDLYGSTSQEVASVKQAFDAVGVK', 1.05),
  ('I156R: single-substitution thermolysin variant (SEQ ID NO:3 numbering) (protein, listed as Geobacillus caldoproteolyticus) ITGTSTVGVGRGVLGDQKNINTTYSTYYYLQDNTRGNGIFTYDAKYRTTLPGSLWADADNQFFASYDAPAVDAHYYAGVTYDYYKNVHNRLSYDGNNAAIRSSVHYSQGYNNAFWNGSQMVYGDGDGQTFIPLSGGIDVVAHELTHAVTDYTAGLRYQNESGAINEAISDIFGTLVEFYANKNPDWEIGEDVYTPGISGDSLRSMSDPAKYGDPDHYSKRYTGTQDNGGVHINSGIINKAAYLISQGGTHYGVSVVGIGRDKLGKIFYRALTQYLTPTSNFSQLRAAAVQSATDLYGSTSQEVASVKQAFDAVGVK', 1.15);
